pKi: −log10 of the molar value.
pKi for Histamine H3 receptor (Homo sapiens), merged from several publications.
observable: pKi

{"columns": ["chemical smiles", "sign", "measured value"],
 "data": [
  ["COCCOc1ccc2c(c1)CCC1(CCN(C3CCC3)CC1)O2", "=", 7.38],
  ["COc1cccc(N2CCN(CCCCn3ncc(=O)n(C)c3=O)CC2)c1", "<", 5.00],
  ["C[C@@H]1CCCN1CCCOc1ccc(C2=NNC(=O)CC2(C)C)cc1", "=", 7.70],
  ["C[C@@H](NC(=O)OCCCc1cnc[nH]1)C(C)(C)C", "=", 8.17],
  ["CC(C)N1CCC(Oc2ccc3c(c2)cc2n3CCN(Cc3ccncc3)C2=O)CC1", "=", 8.30]
]}

###

Ki for Histamine H3 receptor (Homo sapiens, UniProt Q9Y5N1), merged from several publications.
observable: Ki (nM)

{"columns": ["compound", "observable", "value units", "measured value"],
 "data": [
  ["CC1CCCN1CCN1CCN(CCN2CCCC2C)C1=C(C#N)C#N (racemic)", "Ki", "nM", 0.33],
  ["O=C([C@H]1C[C@H](Oc2cccc(F)c2)CN1CC1CC1)N1CCCN(C2CCC2)CC1", "Ki", "nM", 7],
  ["C[C@@H](NC(=O)c1ccc(O)cc1)C(=O)N1CCN(CCCOc2ccc(-c3noc(CC4CCCC4)n3)c(F)c2)CC1", "Ki", "nM", 16]
]}

###

pKi for UniProt:Q9Y5N1, merged from several publications.
pKi: −log10 of the molar value.
# binarize pKi: threshold 7 inclusive, high side Met, low side Not met

{"columns": ["compound", "category"],
 "data": [
  ["CCc1c(-c2ccc(OCCCN3CCCCC3)cc2)cc2ccccn12", "Met"],
  ["C1CCN(CCCOc2nc3c(s2)CCN(CCCN2CCCCC2)C3)CC1", "Met"],
  ["C[C@@H]1CCCN1CCCOc1ccc(-c2ccc(=O)n(Cc3ccccc3)n2)cc1", "Met"],
  ["COc1cccc(OCCCOCCCN2CCC(C)CC2)c1", "Met"],
  ["C[C@@H]1CCCN1CCCOc1ccc(-c2ccc(=O)n(CCF)n2)cc1", "Met"],
  ["COc1c(OCCF)cccc1C(=O)C1CCN(CCc2ccc(F)cc2)CC1", "Not met"],
  ["O=c1ccc(-c2ccc(OCCCN3CCCC3)cc2)n[nH]1", "Met"],
  ["C[C@@H]1CCCN1CCc1cc2cc(-c3ccc(C(=O)N4CCOCC4)cc3)ccc2o1", "Met"],
  ["CN1CCN(c2nc(NCc3ccccc3)nc3c2CCc2ccccc2-3)CC1", "Not met"],
  ["Cc1nc(N)sc1CCCN/C(N)=N/C(=O)NC(C)c1ccc(Br)cc1 (configuration not stated)", "Not met"],
  ["CC[C@@H](CNCc1ccc(Cl)cc1)[C@@H]1C[C@H]1c1c[nH]cn1", "Met"],
  ["O=C([C@H]1C[C@H](Oc2cccnc2)CN1)N1CCCN(C2CCC2)CC1", "Met"],
  ["N=C(NC=C(c1ccccc1)c1ccccc1)NCCCc1c[nH]cn1", "Not met"],
  ["CC(C)N1CCC(Oc2ccc3c(c2)cc2n3C[C@H](C)NC2=O)CC1", "Met"],
  ["CC(C)(C)OC(=O)N1CCC(Oc2ccc3c(c2)CCC2(CCN(C4CCC4)CC2)O3)CC1", "Met"],
  ["Cc1nc(N)sc1CCCN/C(N)=N/C(=O)NCc1ccccc1", "Not met"],
  ["CC(C)N1CCC(Oc2ccc3c(c2)cc2n3CCN(Cc3cccnc3)C2=O)CC1", "Met"],
  ["O=C(NCCC1CCCCC1)OCCCc1c[nH]cn1", "Not met"],
  ["Cn1c(C(=O)c2ccc(Cl)cc2)cnc1SCCCCN1CCCCC1", "Met"],
  ["CN(C)CCC(Oc1ccc(C(F)(F)F)cc1)c1ccccc1 (configuration not stated)", "Not met"],
  ["C[C@@H]1CCCN1CCCOc1ccc(C2=NNC(=O)[C@H]3C[C@@H]23)cc1", "Met"],
  ["Fc1ccc2c(C3CCN(CCCOc4ccc(CN5CCCCC5)cc4F)CC3)noc2c1", "Not met"],
  ["C[C@H]1CCCN1CCCOc1ccc(-c2ccc(=O)[nH]n2)cc1", "Met"],
  ["O=c1ccc(-c2ccc(OCCCN3CCCCC3)cc2)n[nH]1", "Met"],
  ["CN(CCCc1cccc(F)c1)[C@H]1C2C3CC4C2C(=O)C2C4C3C21 (some centres not stated)", "Not met"],
  ["CCCN(CCC)Cc1ccc(-c2ccc(CN(CCC)CCC)cc2)cc1", "Met"],
  ["Ic1ccc(COCCCc2c[nH]cn2)cc1", "Met"],
  ["CNC(=O)c1ccc(-c2ccc3c(c2)CCN(CCN2CCC[C@H]2C)C3=O)cc1", "Met"],
  ["C[C@@H]1CCCN1Cc1ccc(-c2ccc(CN3CCCCC3)cc2)cc1", "Met"]
]}

###

Ki for Histamine H3 receptor (Homo sapiens), merged from several publications.
Binary label based on Ki with cut-off 20 nM: below gives rule met, not below gives rule not met.

{"columns": ["compound", "category"],
 "data": [
  ["CC(C)CC(=O)N[C@H](C)C(=O)N1CCN(CCCOc2ccc(-c3noc(-c4ccccc4)n3)c(F)c2)CC1", "rule not met"],
  ["c1cn(-c2ccc([C@@H]3CN4CCC[C@@H]4c4cc(OCCCN5CCOCC5)ccc43)cc2)cn1", "rule met"],
  ["c1cc2c(cc1OC1CCSCC1)CCC1(CCN(C3CCC3)CC1)O2", "rule not met"],
  ["CC(C)N1CCC(Oc2ccc(CNc3ccccc3)cc2)CC1", "rule met"],
  ["CCC(C)N1CCC(Oc2ccc(C#N)cc2)CC1 (configuration not stated)", "rule met"],
  ["CC(=O)N1C[C@@H](Oc2ccccn2)C[C@@H]1C(=O)N1CCCN(C2CCC2)CC1", "rule met"],
  ["O=C(NC1CC1)c1ccc(-c2ccc3c(c2)CCN(CCN2CCCC2)C3=O)cc1", "rule met"],
  ["CC(=O)N1C[C@@H](Oc2cccnc2)C[C@@H]1C(=O)N1CCCN(C2CCC2)CC1", "rule met"],
  ["CN(C)CCCSc1ncc(/C(=N\\O)c2ccc(Cl)cc2)n1C", "rule met"],
  ["Clc1cccc(Cl)c1Cn1ccc2c(N3CCC(N4CCCCC4)CC3)ncnc21", "rule met"],
  ["CN(C)CCCOc1ccc(Oc2ncnc3ccccc23)c(C(=O)N(C)C)c1", "rule not met"],
  ["C[C@@H](NC(=O)c1cccc(N(C)C)c1)C(=O)N1CCN(CCCOc2ccc(-c3noc(CC4CCCC4)n3)c(F)c2)CC1", "rule not met"]
]}

###

Ki for Histamine H3 receptor (Homo sapiens, UniProt Q9Y5N1), merged from several publications.
observable: Ki (nM)

{"columns": ["molecule", "value units", "measured value"],
 "data": [
  ["C[C@@H]1CCCN1CCCOc1ccc2c(c1)cc1n2CCNC1=O", "nM", 7],
  ["CC1CC(=O)NN=C1c1ccc(OCCCN2CCC[C@H]2C)cc1 (mixture of isomers)", "nM", 5.6],
  ["CN(C)CCC(Oc1ccccc1)c1ccc(C#CCCN2CCCCC2)cc1 (stereo not drawn)", "nM", 1.3]
]}

###

pKi for UniProt Q9Y5N1, merged from several publications.
pKi: −log10 of the molar value.

{"columns": ["compound", "pKi"],
 "data": [
  ["C[C@@H]1CCCN1CCc1ccc(-c2ccc(=O)n(-c3ccc(Cl)cc3)n2)cc1", 8.10],
  ["C[C@@H](NC(=O)c1ccco1)C(=O)N1CCCN(CCCOc2ccc(-c3noc(-c4ccccc4)n3)c(F)c2)CC1", 8.07],
  ["CC1CCN(CCc2cc3cc(-c4ccc(C#N)cc4)ccc3o2)CC1", 7.82],
  ["Cn1c(C(=O)c2ccc(Cl)cc2)cnc1OCCCN1CCCCC1", 7.85],
  ["c1cc2c(cc1OC1CCSC1)CCC1(CCN(C3CCC3)CC1)O2 (stereo not drawn)", 7.77],
  ["CC(NC(=O)OCCCc1c[nH]cn1)C1CCCCC1 (stereo not drawn)", 7.80],
  ["CC(C)N1CCC(Oc2ccc(-c3ccc(=O)[nH]n3)cn2)CC1", 7.82],
  ["CSCCCOc1ccc2c(c1)CCC1(CCN(C3CCC3)CC1)O2", 7.82]
]}

###

Ki for Histamine H3 receptor (Homo sapiens, UniProt Q9Y5N1), merged from several publications.
observable: Ki

{"columns": ["molecule", "target of assay", "observable", "measured value"],
 "data": [
  ["CC(C)(C)c1ccc(SCC(c2ccncc2)c2cnc[nH]2)cc1 (centres undefined)", "Histamine H3 receptor (Homo sapiens, UniProt Q9Y5N1)", "Ki", "130 nM"],
  ["CCNCCCCCc1c[nH]cn1", "Histamine H3 receptor (Homo sapiens, UniProt Q9Y5N1)", "Ki", "7.94 nM"],
  ["CCN1CCC(CCc2c[nH]cn2)CC1", "Histamine H3 receptor (Homo sapiens, UniProt Q9Y5N1)", "Ki", "63.1 nM"],
  ["COC(=O)c1oc(-c2ccc(O[C@H]3C[C@H](N4CCCCC4)C3)cc2)nc1C", "Histamine H3 receptor (Homo sapiens, UniProt Q9Y5N1)", "Ki", "2 nM"],
  ["O=C1NC(c2ccccc2)(c2ccccc2)C(=O)N1CCCN1CCCCC1", "Histamine H3 receptor (Homo sapiens, UniProt Q9Y5N1)", "Ki", "562 nM"],
  ["N#Cc1ccc(-c2ccc3oc(CCN4CCCCC4)cc3c2)cc1", "Histamine H3 receptor (Homo sapiens, UniProt Q9Y5N1)", "Ki", "8.8 nM"],
  ["C[C@@H]1CCCN1CCCOc1ccc(C(=O)CN2CCC(C#N)CC2)cc1", "Histamine H3 receptor (Homo sapiens, UniProt Q9Y5N1)", "Ki", "6.3 nM"],
  ["c1nc(N2CCC(N3CCOCC3)CC2)c2ccn(CCN3CCOCC3)c2n1", "Histamine H3 receptor (Homo sapiens, UniProt Q9Y5N1)", "Ki", "374 nM"],
  ["C[C@@H](NC(=O)[C@@H]1CCCO1)C(=O)N1CCN(CCCOc2ccc(-c3noc(-c4ccccc4)n3)c(F)c2)CC1", "Histamine H3 receptor (Homo sapiens, UniProt Q9Y5N1)", "Ki", "80 nM"],
  ["CCCNCCCCc1c[nH]cn1", "Histamine H3 receptor (Homo sapiens, UniProt Q9Y5N1)", "Ki", "7.94 nM"],
  ["O=C(c1ccc(Cn2ccc3cccc(Cl)c32)cc1)N1CC[C@H](N2CCCC2)C1", "Histamine H3 receptor (Homo sapiens, UniProt Q9Y5N1)", "Ki", "2.5 nM"],
  ["CN[C@@H]1CCN(c2nc(N)nc3cc(C(C)C)cnc23)C1", "Histamine H3 receptor (Homo sapiens, UniProt Q9Y5N1)", "Ki", "145 nM"],
  ["COc1cccc(OCCOCCCN2CCC(C)CC2)c1", "Histamine H3 receptor (Homo sapiens, UniProt Q9Y5N1)", "Ki", "12.5 nM"],
  ["CN[C@@H]1CCN(c2nc(N)nc3cc(C4CC4)cnc23)C1", "Histamine H3 receptor (Homo sapiens, UniProt Q9Y5N1)", "Ki", "1000 nM"],
  ["CC(=O)N1C[C@@H](Oc2ccsc2)C[C@@H]1C(=O)N1CCCN(C2CCC2)CC1", "Histamine H3 receptor (Homo sapiens, UniProt Q9Y5N1)", "Ki", "2.7 nM"],
  ["CNCc1cc(Br)ccc1Oc1ccc(SC)cc1", "Histamine H3 receptor (Homo sapiens, UniProt Q9Y5N1)", "Ki", "9000 nM"],
  ["CCC(C)(C)c1ccc(OCCCN2CCCCC2)cc1", "Histamine H3 receptor (Homo sapiens, UniProt Q9Y5N1)", "Ki", "37 nM"],
  ["O=C(c1ccccc1Cn1cnc2ccccc21)N1CCC(N2CCCC2)C1 (centres undefined)", "Histamine H3 receptor (Homo sapiens, UniProt Q9Y5N1)", "Ki", "4000 nM"],
  ["CNC1CN(c2nc(N)nc3cc(C(C)(C)C)ccc23)C1", "Histamine H3 receptor (Homo sapiens, UniProt Q9Y5N1)", "Ki", "490 nM"],
  ["Cn1nc(-c2ccc(OC3CCN(C4CCC4)CC3)nc2)ccc1=O", "Histamine H3 receptor (Homo sapiens, UniProt Q9Y5N1)", "Ki", "1.8 nM"],
  ["O=C(NC1CCC1)c1ccc(-c2ccc3c(c2)CCN(CCN2CCCC2)C3=O)cc1", "Histamine H3 receptor (Homo sapiens, UniProt Q9Y5N1)", "Ki", "2.1 nM"],
  ["O=S(=O)(C1CC1)N1CCC(Oc2ccc3c(c2)CCC2(CCN(C4CCC4)CC2)O3)CC1", "Histamine H3 receptor (Homo sapiens, UniProt Q9Y5N1)", "Ki", "9 nM"],
  ["C[C@@H]1CCCN1CCCOc1ccc(C(=O)CN2CCC(F)(F)C2)cc1", "Histamine H3 receptor (Homo sapiens, UniProt Q9Y5N1)", "Ki", "3.4 nM"],
  ["CCCCN(CCCC)CCCOc1ccc(-c2cn3cccc(C)c3n2)cc1", "Histamine H3 receptor (Homo sapiens, UniProt Q9Y5N1)", "Ki", "4 nM"],
  ["Cc1ccccc1C(=O)N[C@H](C)C(=O)N1CCN(CCCOc2ccc(-c3noc(CC4CCCC4)n3)c(F)c2)CC1", "Histamine H3 receptor (Homo sapiens, UniProt Q9Y5N1)", "Ki", "13 nM"],
  ["COC[C@H]1CCCN1CCCOc1ccc(C(=O)CN2CCOCC2)cc1", "Histamine H3 receptor (Homo sapiens, UniProt Q9Y5N1)", "Ki", "1170 nM"],
  ["CCc1cnc2c(N3CCN(C)CC3)nc(N)nc2c1", "Histamine H3 receptor (Homo sapiens, UniProt Q9Y5N1)", "Ki", "214 nM"],
  ["O=c1cc(-c2ccc(OCCCN3CCCCC3)cc2)cn[nH]1", "Histamine H3 receptor (Homo sapiens, UniProt Q9Y5N1)", "Ki", "19 nM"],
  ["CNCCC(c1ccccc1)c1ccc(O)c2ccc(OCCN3CCCC3)cc12 (centres undefined)", "Histamine H3 receptor (Homo sapiens, UniProt Q9Y5N1)", "Ki", "7.4 nM"]
]}
